Overview of reported IC50 across a group of compounds:
target: Rac GTPase-activating protein 1 (Homo sapiens); assay: MgcRacGAP GTPase-activating activity inhibitors, confirmation, biochemical, ADP Hunter fluorescence, primary and confirmatory (AID 624330); assay type: functional
Sequence (Q9H0H5 whole entry): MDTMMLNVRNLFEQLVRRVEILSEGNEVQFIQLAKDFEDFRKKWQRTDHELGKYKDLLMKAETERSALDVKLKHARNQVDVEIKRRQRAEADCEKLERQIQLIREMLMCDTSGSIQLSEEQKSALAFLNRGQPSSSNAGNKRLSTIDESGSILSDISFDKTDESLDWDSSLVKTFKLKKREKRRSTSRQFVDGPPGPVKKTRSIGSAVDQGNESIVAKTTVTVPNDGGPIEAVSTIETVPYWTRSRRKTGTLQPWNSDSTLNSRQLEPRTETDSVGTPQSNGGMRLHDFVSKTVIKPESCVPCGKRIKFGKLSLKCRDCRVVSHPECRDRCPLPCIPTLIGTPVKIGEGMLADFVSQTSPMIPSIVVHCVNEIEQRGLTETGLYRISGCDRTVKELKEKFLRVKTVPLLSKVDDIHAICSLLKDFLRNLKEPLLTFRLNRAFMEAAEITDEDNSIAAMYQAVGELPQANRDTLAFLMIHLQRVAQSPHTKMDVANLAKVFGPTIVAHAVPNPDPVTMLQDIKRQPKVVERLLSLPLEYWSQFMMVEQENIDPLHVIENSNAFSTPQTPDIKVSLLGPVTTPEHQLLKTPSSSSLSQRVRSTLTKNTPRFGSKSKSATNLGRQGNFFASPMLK
The source made the active and inactive calls.

Sample records with IC50:
Cc1c(O)ccc(/C(Cc2ccc3ccccc3n2)=N\O)c1O    62.1 µM (active)
CC1CN(CCOCCOc2ccccc2-c2ccccc2)CC(C)O1 (stereo not drawn)    87.5 µM (active)

Now let's try a different one.
Task: Tell me the measured IC50 of COc1cc(/C=N/N(C)c2ccccc2)ccc1O , please.
Output: 15.6 µM (active)

* * *

target: Protein RecA (Mycobacterium tuberculosis, UniProt P9WHJ3); assay: Fluorescence Cell-Free Homogeneous Dose Retest to Identify Inhibitors of RecA-Intein Splicing Activity. [Related pubchem assays (depositor defined):AID2097, AID2223, AID489010, AID492950]; format: functional
The source made the active and inactive calls.
Overview of reported EC50 across a group of molecules:

Cc1ccc(C2C(C#N)=C(N)Oc3[nH]nc(-c4cccnc4)c32)o1 (stereo not drawn)    6.46 µM (active)

Task: Tell me the measured EC50 of CN(CC(=O)Nc1ccc(N2CCOCC2)cc1)CC(=O)Nc1cccc(C#N)c1 , please.
Output: > 380 µM (inactive)

Task: Tell me the measured EC50 of Cc1nn(Cc2ccccc2)c2c1C(c1ccccc1)C(C#N)=C(N)O2 (stereo not drawn) , please.
Output: 3.64 µM (active)
